- testSystem: T1, human monocyte chemo-attractant protein-1 (MCP-1) (human, UniProt P13500 24-99)
- T1 construct: 76-residue recombinant protein from E. coli, bought (PeproTech); also called hMCP-1(MCAF); human MCP-1
- T1 sequence (P13500 24-99): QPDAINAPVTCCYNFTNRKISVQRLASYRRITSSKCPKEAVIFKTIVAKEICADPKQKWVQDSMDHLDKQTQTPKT
- protocolDescription: ELISA, coated antigen
ELISA OD under 0.7 OD450 gets class 1, anything at or over 0.7 OD450 gets class 0.

binder	category
anti-MCP-1 mAb 5.1 (antibody, V domains shown) VH: EQSGGGVVQPGRSLRLSCAASGFTFSSYGMHWVRQAPGKGLEWVAVIWYDGNNKYYADSVKGRFTISRDTSKNTLYLQMNSLRAEDTAVYYCARDSSSYYYYGMDVWGQGTTVTVSS VL: NFMLTQPHSVSESPGKTVTISCTRSSGSIASNYVQWFQQRPGSSPTTVIYEDDQRPSGVPDRFCGSIDSSSNSASLTISGLRTEDEADYYCQSYDSSNHVVFGGGTKLTVLG	class 1

q: API: query returns whether the binder falls strictly under 0.7 OD450 in ELISA OD. Query: anti-MCP-1 mAb 3.16.1 (antibody, V domains shown) VH: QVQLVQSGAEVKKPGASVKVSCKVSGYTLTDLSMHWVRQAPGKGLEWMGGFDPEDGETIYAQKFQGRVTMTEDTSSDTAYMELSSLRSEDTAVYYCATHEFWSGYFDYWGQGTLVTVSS VL: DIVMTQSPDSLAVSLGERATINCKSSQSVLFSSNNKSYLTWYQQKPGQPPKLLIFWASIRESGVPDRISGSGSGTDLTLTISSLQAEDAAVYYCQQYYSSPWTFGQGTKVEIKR
a: class 1

q: API: query returns whether the binder falls strictly under 0.7 OD450 in ELISA OD. Query: anti-MCP-1 mAb 1.13.1 (antibody, V domains shown) VH: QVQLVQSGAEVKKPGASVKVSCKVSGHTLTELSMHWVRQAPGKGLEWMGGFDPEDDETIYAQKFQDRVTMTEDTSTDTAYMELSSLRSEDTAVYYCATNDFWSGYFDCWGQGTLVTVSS VL: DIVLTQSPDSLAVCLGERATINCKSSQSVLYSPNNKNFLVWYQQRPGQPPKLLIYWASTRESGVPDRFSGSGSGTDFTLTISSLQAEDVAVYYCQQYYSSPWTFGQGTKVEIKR
a: class 0

q: API: query returns whether the binder falls strictly under 0.7 OD450 in ELISA OD. Query: anti-MCP-1 mAb 3.2 (antibody, V domains shown, also called 3.2 (neat)) VH: QVQLVQSGAEVKKPGASVKVSCKVSGYTLSELSMHWVRQAPGKGLEWMGGFDPEDGEIIHAQKFQGRVTMTEDTSTDTAYMELSSLRSEDTAVYYCATGDFWSGYYLDWWGQGTLVTVSS VL: EIVMMQSPATLSVSPGERATLSCRASQSVNSNLAWYQQKPGQAPRLLINGASTRATGIPARFSGSGSGTEFTLTISSLQSEDFAIYYCQQYNDWPTFTFGGGTKVEINR
a: class 1

q: API: query returns whether the binder falls strictly under 0.7 OD450 in ELISA OD. Query: anti-MCP-1 mAb 1.4.1 (antibody, V domains shown) VH: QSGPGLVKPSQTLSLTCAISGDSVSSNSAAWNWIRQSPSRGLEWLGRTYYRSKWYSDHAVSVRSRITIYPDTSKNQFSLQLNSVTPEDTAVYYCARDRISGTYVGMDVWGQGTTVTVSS VL: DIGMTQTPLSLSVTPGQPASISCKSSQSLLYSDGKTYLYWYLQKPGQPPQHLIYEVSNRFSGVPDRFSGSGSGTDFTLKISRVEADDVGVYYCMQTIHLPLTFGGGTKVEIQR
a: class 0

q: API: query returns whether the binder falls strictly under 0.7 OD450 in ELISA OD. Query: anti-MCP-1 mAb 1.6.1 (antibody, V domains shown) VH: QVQLVQSGAEVKKPGASVKVSCKVSGYTLTELSMHWVRQAPGKGLEWMGGFDPEDGETIYAQKFQGRVTMTEDTSTDTAYMELSSLRSEDTAVYYCATWYSGIYLAFDIWGQGTMVTVSS VL: EIVLTQSPDFQSVTPKEKVTITCRASQSIGSSLHWYQQKPDQSPKLLIKYASQSFSGVPSRFSGSGSGTDFTLTINSLEAEDAATYYCHQSSSLPHTFGGGTKVEIKR
a: class 1
